# Test system: MS2 coat protein
# assay-remarks: apparent KD of MS2 coat protein; designed switch direction (-1 OFF switch, 1 ON switch): -1; higher = weaker reporter binding
# condition: Eterna round: R95; input ligand: microRNA oligo, concentration not stated

>  <chain-sequence>
CUUUUGUGAGGAUAUUAGUAUUAAAUAAAUAAAAUUACUACUGAGAAGGCACAUGAGGAUCACCCAUGUUCCUC [salish99_ex4_r3_050] (puzzle: Exclusion 4)

>  <unit-symbol>
nM

>  <apparent KD of MS2 coat protein>
33.6

$$$$
>  <chain-sequence>
GAUAAGGUAGGAUAUACGAAUAAAAAGGGUAGAAGAAGAACACAUGAGGAUCACCCAUGUAGAAGGACCAAUAG [Mat - Exclusion 2 - Mod of my Tesla design - D24] (puzzle: Exclusion 2)

>  <unit-symbol>
nM

>  <apparent KD of MS2 coat protein>
19.7

$$$$
>  <chain-sequence>
GUAGAGUAAGGAUAUAGAGAAUAGGAUAGAAUGGUUAGAAUCUAGAAGGUACAUGAGGAUCACCCAUGUAAUGU [Excluse me!!!! 7 - Jieux - Exclusion 4] (puzzle: Exclusion 4)

>  <unit-symbol>
nM

>  <apparent KD of MS2 coat protein>
18.7

$$$$
>  <chain-sequence>
GGUUAUUGCAAGGAUAUGCUUUUUUUUGAUAUUGCAGAAGGUGCAACAUGAGGAUCACCCAUGUUGGAGGGAUU [JR_E6_Sub020] (puzzle: Exclusion 6)

>  <unit-symbol>
nM

>  <apparent KD of MS2 coat protein>
32.7

$$$$
>  <chain-sequence>
UCAAGUAUGUAGGAUAUGAUGUGAUUGUACAUAUCAGAAGGACGUACAUGAGGAUCACCCAUGUAACUUGCAUG [Exclusion 6 - B - 12:b] (puzzle: Exclusion 6)

>  <unit-symbol>
nM

>  <apparent KD of MS2 coat protein>
144

$$$$
>  <chain-sequence>
AGUACUAUGCGUGCUGACAUGCGUAGUGCAGCAGGUGUUACAUGAGGAUCACCCAUGUCCUCAUUUGCUCGUCUUAU [Mat - Sensor v3 - Turn-off var 2 - D15] (puzzle: Sensor v3, turn-off variant 2)

>  <unit-symbol>
nM

>  <apparent KD of MS2 coat protein>
79.2

$$$$
>  <chain-sequence>
CCGCAAAUGCAGGAUAUCGUAUCGGAUACGAUACGAGAAGGGCAAACAUGAGGAUCACCCAUGUGUCCUAGCGG [Fiskers Ex 6 - 39] (puzzle: Exclusion 6)

>  <unit-symbol>
nM

>  <apparent KD of MS2 coat protein>
13.7

$$$$
>  <chain-sequence>
GUAAUUAUAUAGGAUAUCGAACUUAUUAUUUAACGAGAAGGAUGAACAUGAGGAUCACCCAUGUGGUAUCAUGG [JL-ex6-3.06] (puzzle: Exclusion 6)

>  <unit-symbol>
nM

>  <apparent KD of MS2 coat protein>
175

$$$$
>  <chain-sequence>
UUACUAUGUCGCCUAAUAGCUUUUUGCUCGUCUUAUAUUACAUGAGGAUCACCCAUGUAGAUCAUGUGGCGUGACCU [JL ViennaUCT Maridi mod 4] (puzzle: Sensor v3, turn-off variant 2)

>  <unit-symbol>
nM

>  <apparent KD of MS2 coat protein>
39.1

$$$$
>  <chain-sequence>
UAAUUAAGUGUGAGGAUAUGCUGGUCCUUGGAUCAGCAGAAGGCACAUGAGGAUCACCCAUGUAAUAUAUAUAU [Mat - Exclusion 4 - JL Mod - D53] (puzzle: Brourd's mod of Exclusion 4)

>  <unit-symbol>
nM

>  <apparent KD of MS2 coat protein>
108

$$$$
>  <chain-sequence>
AAGUAUAGAGGAUAUAGUGAGUACUACAUGAGGAUCACCCAUGUUCUUCAAAGCGUAUUUCUAGAAGGCUGAUGAA [EX-5 Malc#15] (puzzle: Exclusion 5)

>  <unit-symbol>
nM

>  <apparent KD of MS2 coat protein>
38.8

$$$$
>  <chain-sequence>
UGAAAACAUGAGGAUCACCCAUGUAAGGAUAUGCAAAAGGAUAUAGAAGGAAAAAAAAGCAGAAGGUACAAAGG [salish99-ex1_r3_095] (puzzle: Exclusion 1)

>  <unit-symbol>
nM

>  <apparent KD of MS2 coat protein>
86.6

$$$$
>  <chain-sequence>
GCUGCGCGAGGAUAUGCGGUUUGUGCUGUGGCCCGUGGCGUACAUGAGGAUCACCCAUGUAGAAGGCGUGUGGG [Apr-15 SS2-54] (puzzle: Exclusion 2)

>  <unit-symbol>
nM

>  <apparent KD of MS2 coat protein>
22.5

$$$$
>  <chain-sequence>
AGUACUAACACGAGAGUGUUAGUACUAUAAGCUUGUGUUACAUGAGGAUCACCCAUGUCCUCAUAGGCUCGUCUUAA [Mat - Sensor v3 - Turn-off var 2 - D82] (puzzle: Sensor v3, turn-off variant 2)

>  <unit-symbol>
nM

>  <apparent KD of MS2 coat protein>
75.5

$$$$
>  <chain-sequence>
UCUUAUUGCAAGGAUAUGCAAAUUAUUUUUUAAGCAGAAGGUGCAACAUGAGGAUCACCCAUGUUUCCGGGCAA [JR_E6_Sub038] (puzzle: Exclusion 6)

>  <unit-symbol>
nM

>  <apparent KD of MS2 coat protein>
16.8

$$$$
